Test system: P12-Ichikawa
Test: AUC of viability dose-response curve (% viability x log10 dose units); higher = less sensitive
Conditions: HPLM + 10% dialyzed FBS; 48 h
Listed next: entries and their corresponding AUC of viability dose-response curve.
Reply briefly: the number, and no unit.

| MOLECULE | NUMERIC_RESULT |
| --- | --- |
| Cn1cc(-c2ccncc2)c(-c2ccc(OCc3ccc4ccccc4n3)cc2)n1 | 449 |
| COC1=CC=C2C(=CC=NC2=C1)OC3=CC=C(NC(=O)\C4=C(C)\N(CC(C)(C)O)N(C4=O)C5=CC=CC=C5)C=C3F | 472 |
| CCOc1ccccc1OCCNC(C)Cc1ccc(OC)c([S+](N)(=O)[O-])c1 (stereo unspecified) | 471 |
| CNC(=O)c1cc(Oc2ccc(NC(=O)Nc3cc(C(C)(C)C)nn3-c3ccc4ncccc4c3)c(F)c2)ccn1 | 464 |
| COc1ccc(-c2c(-c3ccc(O)cc3O)n[nH]c2C)cc1 | 465 |

-- ask Give the measured AUC of viability dose-response curve of `CCC(=O)O[C@@]1([C@H](C)C[C@H]2[C@@H]3C[C@H](F)\C4=C\C(=O)\C=C/[C@]4(C)[C@@]3(F)[C@@H](O)C[C@]12C)C(=O)SCF` .
-- reply 342

-- ask Please report the recorded AUC of viability dose-response curve for `CCOC(=O)c1ncn2c1CN(C)C(=O)c1cc(F)ccc1-2` .
-- reply 427

-- ask Query (molecule): `CC1(C)O[C@H]2CC(=O)OC[C@]23[C@H]2CC[C@@]4(C)[C@H](c5ccoc5)OC(=O)[C@H]5O[C@]54[C@]2(C)C(=O)C[C@@H]13` ; field requested: AUC of viability dose-response curve
-- reply 468

-- ask Data request, read-out AUC of viability dose-response curve, for `CCc1cc(/C(C)=N/OCc2ccc(C3CCCCC3)c(C(F)(F)F)c2)ccc1CN1CC(C(=O)O)C1`
-- reply 418

-- ask What value of measured AUC of viability dose-response curve is listed for `Cc1cc(SCc2sc(-c3ccc(C(F)(F)F)c(F)c3)nc2C)ccc1OCC(=O)O` ?
-- reply 466

-- ask I am curious: what AUC of viability dose-response curve value has been reported for `COc1cc2ncnc(Nc3ccc(F)c(Cl)c3)c2cc1OCCCN1CCOCC1` ?
-- reply 446

###

Tested on: P12-Ichikawa
Experiment: cell viability relative to DMSO control; higher = less cytotoxic
Conditions: RPMI 5 mM glucose + 10% dialyzed FBS; 48 h; 0.0211 µM
READOUT_TYPE: cell viability (%)
The reply should contain only the number, in %.

| COMPOUND | EXPERIMENTAL_SYSTEM | cell viability [%] |
| --- | --- | --- |
| Cc1cnc(Nc2ccc(OCCN3CCCC3)cc2)nc1Nc1cccc([S+](=O)([O-])NC(C)(C)C)c1 | P12-Ichikawa | 106 |
| CC1=C(/C=C/C(C)=C/C=C/C(C)=C/C(=O)Nc2ccc(O)cc2)C(C)(C)CCC1 | P12-Ichikawa | 84.8 |
| C[Se]CCC(N)C(=O)O (configuration not stated) | P12-Ichikawa | 85.1 |
| COc1ccc(Cn2ccc3ccc(C(=O)NO)cc32)cc1 | P12-Ichikawa | 79.9 |
| c1cc(OCCN2CCCCC2)cc(-c2n[nH]c3ccc(-c4nc[nH]n4)cc23)c1 | P12-Ichikawa | 19.2 |
| COc1cc2nc(-c3ccc(N4CCN(C)CC4)cc3)nc(NCCN3CCOCC3)c2cc1OC | P12-Ichikawa | 103 |

// switching to the query compound
-- ask // cell viability lookup, key: `COc1cc(/C=C/C(=O)CC(=O)/C=C/c2ccc(O)c(OC)c2)ccc1O`
-- reply 110

Value source: the supplement of paper PMC11451515
